Record set: pIC50 | ERAP1 (Homo sapiens, UniProt Q9NZ08) | literature, multiple sources.
pIC50: −log10 of the molar value.

Exercise: For the molecule shown here, "COc1ccc(C(=O)O)cc1NS(=O)(=O)c1cc(C(F)(F)F)ccc1N(C)C" , give the reported pIC50.
Key: > 6.30

Exercise: Ok, now "N#Cc1ccc(N2CCCC(F)(F)C2)c(NS(=O)(=O)c2cc(C(=O)O)ccc2C2CC2)c1"
Key: > 6.30

Exercise: Ok, now "Cc1sncc1-c1ccc(-n2cccc2)c(NS(=O)(=O)c2cc(C(=O)O)ccc2C2CC2)c1"
Key: > 6.30

Exercise: Ok, now "N#Cc1cc(NS(=O)(=O)c2cc(C(=O)O)ccc2C2CC2)c(-c2ncccn2)cc1F"
Key: > 6.30

Exercise: Ok, now "N#Cc1cc(NS(=O)(=O)c2cc(C(=O)O)ccc2C2CC2)c(-c2nccs2)cc1Cl"
Key: > 6.30

Exercise: Ok, now "N#Cc1cc(NS(=O)(=O)c2cc(C(=O)O)ccc2C2CC2)c(-c2ccsn2)cc1Cl"
Key: > 6.30

Exercise: Ok, now "N#Cc1ccc(-c2ccsn2)c(NS(=O)(=O)c2cc(C(=O)O)ccc2C2CC2)c1"
Key: > 6.30

Exercise: Ok, now "CO[C@H]1C[C@@H](Oc2cc(Cl)c(C#N)cc2NS(=O)(=O)c2cc(C(=O)O)ccc2C2CC2)C1"
Key: 8.30 to 9.00

Exercise: Ok, now "O=C(O)c1ccc(OCC(F)(F)F)c(S(=O)(=O)Nc2cc(C(F)(F)F)ccc2N2CCCCC2)c1"
Key: > 5.30

Exercise: Ok, now O=C(O)c1ccc(C2CC2)c(S(=O)(=O)Nc2cc(C(F)(F)F)c(F)cc2C2CCCCN2)c1 (stereo not drawn)
Key: > 7.00

Exercise: Ok, now "CCc1ccc(C(=O)O)cc1S(=O)(=O)Nc1cc(-c2cnnn2C)ccc1N1CCCCC1"
Key: > 6.30

Exercise: Ok, now "Cc1cc(C#N)cc(NS(=O)(=O)c2cc(C(=O)O)ccc2C2CC2)c1N1CCCCC1"
Key: > 6.30

Exercise: Ok, now "N#Cc1ccc(-c2ccccc2)c(NS(=O)(=O)c2cc(C(=O)O)ccc2C2CC2)c1"
Key: > 6.30

Exercise: Ok, now N#Cc1cc(NS(=O)(=O)c2cc(C(=O)O)ccc2C2CC2)c(OC2CCCC2F)cc1Cl (racemic)
Key: > 9.00

Exercise: Ok, now C#CC1CCCC1Oc1cc(Cl)c(C#N)cc1NS(=O)(=O)c1cc(C(=O)O)ccc1C1CC1 (single isomer, unassigned)
Key: > 9.00

###

Record set: IC50 | ERAP1 (Homo sapiens, UniProt Q9NZ08) | literature, multiple sources.

Exercise: For the molecule shown here, "N#Cc1cc(NS(=O)(=O)c2cc(C(=O)O)ccc2C2CC2)c(OC2COC2)cc1Cl" , give the reported IC50.
Key: > 5 nM

Exercise: Ok, now "Cc1sncc1-c1ccc(-c2ccc(Cl)s2)c(NS(=O)(=O)c2cc(C(=O)O)ccc2C2CC2)c1"
Key: < 500 nM

Exercise: Ok, now "COc1ccc(C(=O)O)cc1S(=O)(=O)Nc1cc(C#N)ccc1-c1ccc(Cl)s1"
Key: < 500 nM

Exercise: Ok, now "COc1ccc(C(=O)O)cc1S(=O)(=O)Nc1cc(C(F)(F)F)ccc1N1CCC(O)(C(F)(F)F)CC1"
Key: > 5000 nM

Exercise: Ok, now "CS(=O)(=O)c1ccc(N2CCCC(F)(F)C2)c(NS(=O)(=O)c2cc(C(=O)O)ccc2C2CC2)c1"
Key: < 500 nM

Exercise: Ok, now "CCc1ccc(C(=O)O)cc1S(=O)(=O)Nc1cc(C(F)(F)F)ccc1OC1CCC1"
Key: > 5 nM

Exercise: Ok, now "N#Cc1cc(NS(=O)(=O)c2cc(C(=O)O)ccc2C2CC2)c(O[C@@H]2C[C@@H]3C[C@@H]3C2)cc1Cl"
Key: < 1 nM

Exercise: Ok, now "COc1ccc(C(=O)O)cc1S(=O)(=O)Nc1cc(C(F)(F)F)c(Cl)cc1-n1cccc1"
Key: < 500 nM

Exercise: Ok, now "O=C(O)c1ccc(C2CC2)c(S(=O)(=O)Nc2cc(-c3ccns3)ccc2-c2cccs2)c1"
Key: < 500 nM
